- test: Pharmacokinetics of MT, 6-HMT and CBD in SD rats (i.v. and oral)
- conditionNotes: male, Sprague-Dawley, rat, in vivo, po, 5 mg/kg, MRT(0–t), rats, p.o., MT + Vehicle 5 mg/kg
parameterMeasured: MRT last (min)
Your answer is read as min, so omit the unit and give the number.

Input: Give MRT last for the following compound: COc1ccc2[nH]cc(CCNC(C)=O)c2c1
Output: 40.2

* * *

- test: Plasma protein binding (rapid equilibrium dialysis), mouse
- Type: in vitro ADME
- conditionNotes: pH 7.4
parameterMeasured: fraction unbound at 6 h
Lab note: record the figure alone, no unit after it.

> print(dat)
                                 smilescode  reading
1  C=C(C)[C@@H]1CCC(C)=C[C@H]1c1c(O)cc(CCCCC)cc1O   0.0029

Next compound, fraction unbound at 6 h to be filled in.
Input: Give fraction unbound at 6 h for the following compound: COc1ccc2[nH]cc(CCNC(C)=O)c2c1
Output: 0.451

* * *

- test: Pharmacokinetics of MT, 6-HMT and CBD in SD rats (i.v. and oral)
- conditionNotes: Sprague-Dawley, rat, plasma, po, 20 mg/kg, Cmax, rats, p.o., MT + CBD (20 + 20) mg/kg
parameterMeasured: Cmax (ng/mL)
Your answer is read as ng/mL, so omit the unit and give the number.

Input: Give Cmax for the following compound: C=C(C)[C@@H]1CCC(C)=C[C@H]1c1c(O)cc(CCCCC)cc1O
Output: 519

* * *

- test: Pharmacokinetics of MT, 6-HMT and CBD in SD rats (i.v. and oral)
- conditionNotes: male, Sprague-Dawley, rat, in vivo, po, 5 mg/kg, Cmax, rats, p.o., MT + CBD (5 + 20) mg/kg
parameterMeasured: Cmax
A complete answer gives the number followed by the unit.

Input: Give Cmax for the following compound: COc1ccc2[nH]cc(CCNC(C)=O)c2c1
Output: 99 ng/mL

* * *

- System: CYP enzymes of MT 6-hydroxylation
- test: in vitro
- conditionNotes: human, liver microsomes, probe melatonin (MT) 2 μM, 6-hydroxylation to 6-HMT, IC50 Ratio (IC50 shift), HLM, 30 min pre-incubation with/without NADPH
parameterMeasured: IC50 shift at 30 min
Lab note: record the figure alone, no unit after it.

Input: Give IC50 shift at 30 min for the following compound: C=C(C)[C@@H]1CCC(C)=C[C@H]1c1c(O)cc(CCCCC)cc1O
Output: 2.55

* * *

- test: Pharmacokinetics of MT, 6-HMT and CBD in SD rats (i.v. and oral)
- conditionNotes: male, Sprague-Dawley, rat, in vivo, po, 5 mg/kg, Tmax, rats, p.o., MT + CBD (5 + 5) mg/kg
parameterMeasured: Tmax (min)
Your answer is read as min, so omit the unit and give the number.

Input: Give Tmax for the following molecule: COc1ccc2[nH]cc(CCNC(C)=O)c2c1 [MT, Melatonin]
Output: 19.8

* * *

- test: Pharmacokinetics of MT, 6-HMT and CBD in beagles after oral administration
- conditionNotes: male, beagle, dog, in vivo, po, 3 mg/kg, Tmax, beagles, p.o., MT + Vehicle 3 mg/kg
parameterMeasured: Tmax (min)
Your answer is read as min, so omit the unit and give the number.

Input: Give Tmax for the following compound: COc1ccc2[nH]cc(CCNC(C)=O)c2c1
Output: 13.2

* * *

- Test system: CYP enzymes of MT 6-hydroxylation
- test: in vitro
- conditionNotes: rat, liver microsomes, probe melatonin (MT) 2 μM, 6-hydroxylation to 6-HMT, IC50 Ratio (IC50 shift), RLM, 30 min pre-incubation with/without NADPH
parameterMeasured: IC50 shift at 30 min
Lab note: record the figure alone, no unit after it.

Input: Return reported IC50 shift at 30 min for target or system CYP enzymes of MT 6-hydroxylation, item C=C(C)[C@@H]1CCC(C)=C[C@H]1c1c(O)cc(CCCCC)cc1O .
Output: 1.81

* * *

- test: Liver microsome protein binding, human
- Format: in vitro ADME
- conditionNotes: liver microsomes, pH 7.4
Entries and their measured fraction unbound at 6 h follow.
Lab note: record the figure alone, no unit after it.

> print(dat)
                                   compound        parametermeasured  reading
1  COc1ccc2[nH]cc(CCNC(C)=O)c2c1 [MT, Melatonin]  fraction unbound at 6 h    0.979

Next compound, fraction unbound at 6 h to be filled in.
Input: Give fraction unbound at 6 h for the following compound: C=C(C)[C@@H]1CCC(C)=C[C@H]1c1c(O)cc(CCCCC)cc1O [CBD, Cannabidiol]
Output: 0.0073

* * *

- test: Pharmacokinetics of MT, 6-HMT and CBD in SD rats (i.v. and oral)
- conditionNotes: male, Sprague-Dawley, rat, in vivo, po, 5 mg/kg, AUC(0–t), rats, p.o., MT + CBD (5 + 20) mg/kg
parameterMeasured: AUC(0-t) (ng·h/mL)
Your answer is read as ng·h/mL, so omit the unit and give the number.

Input: Give AUC(0-t) for the following molecule: COc1ccc2[nH]cc(CCNC(C)=O)c2c1
Output: 121

* * *

- test: Pharmacokinetics of MT, 6-HMT and CBD in SD rats (i.v. and oral)
- conditionNotes: Sprague-Dawley, rat, in vivo, po, 20 mg/kg, t1/2, rats, p.o., Vehicle + CBD 20 mg/kg
parameterMeasured: half-life (h)
Your answer is read as h, so omit the unit and give the number.

Input: Give half-life for the following compound: C=C(C)[C@@H]1CCC(C)=C[C@H]1c1c(O)cc(CCCCC)cc1O [CBD, Cannabidiol]
Output: 3.55
